Numbers sourced from the RNAGym collection of RNA variant scans (doi:10.1073/pnas.2313332121).

B1: TPR t1 (parent)
chain: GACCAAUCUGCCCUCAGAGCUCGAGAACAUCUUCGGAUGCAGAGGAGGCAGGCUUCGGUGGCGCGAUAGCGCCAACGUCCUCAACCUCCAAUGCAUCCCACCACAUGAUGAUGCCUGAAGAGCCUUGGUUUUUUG

# Variants of: B1
# Assay explanation: polymerase ribozyme fitness, log enrichment relative to wild type (log ratio); higher = more active; in vitro selection for triplet polymerase activity

[
  {
    "Variant key": "C8A C13G G60C A90U U109G A119U",
    "polymerase ribozyme fitness (log ratio)": -6.32
  },
  {
    "Variant key": "A5C G45U C62U",
    "polymerase ribozyme fitness (log ratio)": -1.97
  },
  {
    "Variant key": "C20A C114A",
    "polymerase ribozyme fitness (log ratio)": -2.56
  },
  {
    "Variant key": "C11G C20A C53G U132A",
    "polymerase ribozyme fitness (log ratio)": -2.13
  },
  {
    "Variant key": "A6G A41G U87A G110A U125G",
    "polymerase ribozyme fitness (log ratio)": -3.92
  }
]
